# TESTED_SYSTEM: human CLDN18.2-mRFP Q29M (human)
# Sequence (chain, as listed by the source Q29M Q29M limits assumed): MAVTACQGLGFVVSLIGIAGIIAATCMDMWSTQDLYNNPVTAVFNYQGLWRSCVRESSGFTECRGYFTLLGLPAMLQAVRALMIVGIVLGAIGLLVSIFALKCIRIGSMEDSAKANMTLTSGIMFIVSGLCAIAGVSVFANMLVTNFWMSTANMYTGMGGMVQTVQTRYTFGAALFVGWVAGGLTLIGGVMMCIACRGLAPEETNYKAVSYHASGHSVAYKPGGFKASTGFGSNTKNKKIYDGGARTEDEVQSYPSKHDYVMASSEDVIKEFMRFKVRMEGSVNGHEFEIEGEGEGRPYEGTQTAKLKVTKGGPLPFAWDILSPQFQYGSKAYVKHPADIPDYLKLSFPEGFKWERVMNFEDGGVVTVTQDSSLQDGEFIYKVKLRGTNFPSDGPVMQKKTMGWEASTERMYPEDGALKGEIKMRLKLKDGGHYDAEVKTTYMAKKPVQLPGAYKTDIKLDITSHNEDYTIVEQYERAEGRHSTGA
# METHOD_DESCRIPTION: FACS, transfected HEK293, 10 µg/ml antibody;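 further: antibody binding read by flow cytometry with a FITC-labelled anti-human IgG secondary, gated on RFP-positive cells, each mutant signal expressed against wild-type CLDN18.2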
OBSERVED_PROPERTY: binding percentage vs wild-type CLDN18.2 (%)
Note: unit % is implicit; provide only the numeric part.

For orientation, consider the following solved cases.
7C12-C (antibody, human IgG1, V domains shown, also called chimeric 7C12) VH: EFQLQQSGPELEKPGASVRISCKTSGYSFTGYNMNWVKQSNGESLEWIGNIDPYYGATRYNQKFKGKATLTVDKSSSTAYMQLKSLTSEDSAVYYCARSYYGNAFDYWGQGTTLTVSS VL: DIVMTQSPSSLTVTAGEKVTMSCKSSQSLLNSGNQKNYLTWYQQKPGQPPKLLIYWASTRESGVPDRFTGSGSGTDFTLTISSVQAEDLAVYYCQNDYSFPFTFGSGTKLEIK	83.5
26G6-C (antibody, human IgG1, V domains shown, also called chimeric 26G6) VH: EFQLQQSGPELEKPGASVKISCKTSGYSFTGYNMNWVKQSNGQSLEWIGHIDPYYVTTTYNQKFRGKATLTVDKSSSTAYMQLKSLTSEDSAVYYCARSFYGNAFDYWGQGTTLTVSS VL: DIVMTQSPSSLTVTAGEKVTMSCKSSQSLFNSGNQKNYLTWYQQKPGQPPKLLIYWASTRESGVPDRFTGSGSGTDFTLTISSVQAEDLAVYYCQNDYSFPFTFGSGTKLEIK	107
12E9-C (antibody, human IgG1, V domains shown, also called chimeric 12E9) VH: EFQLQQSGPELEKPGASVRISCKTSGYSFTGYNMNWVKQSNGESLEWIGNIDPYYGGTRYNQKFKGKATLTVDKSSSTAYMQLKSLTSEDSAVYYCARSYYGNAFDYWGQGTTLTVSS VL: DIVMTQSPSSLTVTAGEKVTMSCKSSQNLLNNGNQKNYLTWYQQKPGQPPKLLIYWASTRESGVPDRFTGSGSGTDFILTISSVQAEDLAVYYCQNDYSFPFTFGAGTKLELK	106

Data request: # binding percentage vs wild-type CLDN18.2 lookup, item 18B10-C (antibody, human IgG1, V domains shown, also called chimeric 18B10) VH: EFQLQQSGPELEKPGASVRISCKTSGYSFTGYNMNWVKQSNGESLEWIGNIDPYYGGTSYNQKFKGKATLTVDKSSSTAYMQLKSLTSEDSAVYYCARMYHGNAFDYWGQGTTLTVSS VL: DIVMTQSPSSLTVTAGEKVTMSCKSSQSLLNSGNLKNYLTWYQQKPGQPPKLLIYWASTRKSGVPDRFTGSGSGTDFTLTLSSVQAEDLAVYYCQNDYSYPLTFGAGTKLELK
Data returned: 83.5
